# METHOD DESCRIPTION: Solubility by turbidimetric assay in sodium phosphate buffer
# Assay type: physicochemical
# DETAILS: sodium phosphate buffer pH 7.4, 0.1 M, 1% DMSO
This listing pairs molecules with measured Solubility.
The response must be a number in µM with no trailing unit.

Use the examples below as a reference point.
[[record]]
molecule = "CC12CCC(C1)C(C)(C)C2NC(=O)Nc1ccccc1Cl [Compound L-6c]"
metric_name = "Solubility"
unit_name = "µM"
recorded_result = 40

[[record]]
molecule = "CC1(C)C2CCC1(C)C(NC(=O)Nc1cccc(Cl)c1)C2 [Compound L-3d]"
metric_name = "Solubility"
unit_name = "µM"
recorded_result = 35

[[record]]
molecule = "CC1(C)C2CCC1(C)C(NC(=S)Nc1cccc(F)c1)C2 [Compound L-3e]"
metric_name = "Solubility"
unit_name = "µM"
recorded_result = 10

[[record]]
molecule = "CC12CCC(C1)C(C)(C)C2NC(=O)Nc1cccc(F)c1 [Compound D-6a]"
metric_name = "Solubility"
unit_name = "µM"
recorded_result = 45


// Input: CC1(C)C2CCC1(C)C(NC(=O)Nc1ccc(F)cc1)C2 [Compound D-3b] . Output its Solubility only.
65

* * *

# METHOD DESCRIPTION: Solubility by turbidimetric assay in sodium phosphate buffer
# Format: physicochemical
# DETAILS: sodium phosphate buffer pH 7.4, 0.1 M, 1% DMSO
Solubility below 30 µM gives f; Solubility at or above it gives t.

[[record]]
compound = "CC1(C)C2CCC1(C)C(NC(=O)Nc1cccc(F)c1)C2 [Compound L-3a]"
classification = "t"


Turning now to a further compound:
Is Solubility at least 30 µM? Consider CC12CCC(C1)C(C)(C)C2NC(=S)Nc1ccc(F)cc1 [Compound L-6f]
f

* * *

log10 IC50 reference
# SYSTEM UNDER TEST: human sEH (Homo sapiens, UniProt P34913)
# Sequence (P34913 whole entry): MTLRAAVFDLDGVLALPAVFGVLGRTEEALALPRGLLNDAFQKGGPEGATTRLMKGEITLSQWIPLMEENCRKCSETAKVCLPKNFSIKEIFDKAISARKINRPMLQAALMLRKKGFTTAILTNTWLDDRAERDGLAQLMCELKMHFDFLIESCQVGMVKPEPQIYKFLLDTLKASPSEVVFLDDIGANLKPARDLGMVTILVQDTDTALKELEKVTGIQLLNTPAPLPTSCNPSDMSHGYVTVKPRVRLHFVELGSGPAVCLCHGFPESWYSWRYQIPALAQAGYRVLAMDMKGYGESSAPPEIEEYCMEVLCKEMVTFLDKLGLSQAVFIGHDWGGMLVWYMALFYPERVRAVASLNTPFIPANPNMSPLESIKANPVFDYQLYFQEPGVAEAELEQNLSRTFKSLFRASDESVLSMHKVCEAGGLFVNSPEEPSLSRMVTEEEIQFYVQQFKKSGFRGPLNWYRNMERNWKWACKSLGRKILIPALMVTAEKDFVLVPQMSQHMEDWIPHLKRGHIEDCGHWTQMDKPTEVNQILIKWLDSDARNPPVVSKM
# METHOD DESCRIPTION: Determination of inhibitory potency
# DETAILS: read-out: Human sEH IC50; recombinant affinity purified human sEH, means of three separate experiments
Give log10 of IC50, with IC50 taken in µM.

Sample records with log10 IC50:
[[record]]
molecule = "CC1(C)C2CCC1(C)C(NC(=O)Nc1ccccc1Cl)C2 [Compound D-3c]"
system_under_test = "human sEH (Homo sapiens, UniProt P34913)"
recorded_result = -1.16

[[record]]
molecule = "CC1(C)C2CCC1(C)C(NC(=O)Nc1ccc(F)cc1)C2 (racemic) [L/D-3b]"
system_under_test = "human sEH (Homo sapiens, UniProt P34913)"
recorded_result = -2.29

[[record]]
molecule = "CC12CCC(C1)C(C)(C)C2NC(=O)Nc1cccc(Cl)c1 [Compound L-6d]"
system_under_test = "human sEH (Homo sapiens, UniProt P34913)"
recorded_result = -0.78

[[record]]
molecule = "CC12CCC(C1)C(C)(C)C2NC(=O)Nc1ccc(F)cc1 [Compound D-6b]"
system_under_test = "human sEH (Homo sapiens, UniProt P34913)"
recorded_result = -0.44


Let us move to another entry and its log10 IC50.
Recall the reported log10 IC50 of CC12CCC(C1)C(C)(C)C2NC(=S)Nc1ccc(F)cc1 [Compound D-6f] on human sEH (Homo sapiens, UniProt P34913) and write it down.
0.78
